# tested-system: T1, CRBN, Q96SW2;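 also: pooled lentiviral library of zinc finger degron-EGFP fusions in mCherry-positive Jurkat cells, FACS-sorted after compound exposure, with degron abundance counted by next-generation sequencing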
# T1 chain: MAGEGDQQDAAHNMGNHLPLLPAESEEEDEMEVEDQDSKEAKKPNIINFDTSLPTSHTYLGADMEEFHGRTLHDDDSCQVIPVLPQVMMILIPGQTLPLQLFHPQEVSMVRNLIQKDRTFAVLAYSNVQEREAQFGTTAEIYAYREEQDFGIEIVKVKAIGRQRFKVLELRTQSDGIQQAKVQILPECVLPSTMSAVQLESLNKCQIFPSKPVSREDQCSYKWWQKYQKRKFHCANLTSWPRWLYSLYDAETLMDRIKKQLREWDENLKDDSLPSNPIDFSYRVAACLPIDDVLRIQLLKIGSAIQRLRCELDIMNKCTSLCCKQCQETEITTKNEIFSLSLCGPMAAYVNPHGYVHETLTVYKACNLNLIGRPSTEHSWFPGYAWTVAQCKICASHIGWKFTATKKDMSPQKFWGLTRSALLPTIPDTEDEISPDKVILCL
# method-notes: log2 fold change of degron read counts, EGFP-low vs EGFP+ sorted cells (limma voom), compound-induced degradation; higher = more compound-induced degradation of the degron-EGFP fusion; degrons are variants of IKZF1/3 zinc finger 2; compound dose not given here
# settings: Jurkat; 18 h; compound: thalidomide
The full ranking holds about 8,300 sequences; the median of “log2 fold change of degron read counts, EGFP-low vs EGFP+ sorted cells (limma voom), compound-induced degradation” is about -1.1, and the highest 2% start at about 3.2. Shown is part of a subset that was picked to be rich in the highest values.
endpoint-name: log2 fold change of degron read counts

INSERT INTO results (residue_codes, endpoint_name, numeric_value) VALUES
  ('LTCEICGFGCTQKGNLLRHIKL [46L_47T_49E_50I_52G_53F_54G_55C_67L_, Q9UKT9]', 'log2 fold change of degron read counts', 1.18),
  ('FQCEICGAKFTQKGNLLRHIKL [46F_47Q_49E_50I_52G_53A_54K_55F_67L_, Q9UKT9]', 'log2 fold change of degron read counts', 3.46),
  ('FVCEVCGAHFTQKGNLLRHIKL [46F_47V_49E_50V_52G_53A_54H_55F_67L_, Q9UKT9]', 'log2 fold change of degron read counts', 1.87),
  ('FRCEVCGAHFTQKGNLLRHIKL [46F_47R_49E_50V_52G_53A_54H_55F_67L_, Q9UKT9]', 'log2 fold change of degron read counts', 0.202),
  ('FCCEICGAKFTQKGNLLRHIKL [46F_47C_49E_50I_52G_53A_54K_55F_67L_, Q9UKT9]', 'log2 fold change of degron read counts', 2.53),
  ('FQCPICGRGFTQKGNLLRHIKL [46F_47Q_49P_50I_52G_53R_54G_55F_67L_, Q9UKT9]', 'log2 fold change of degron read counts', 1.8),
  ('FYCEVCGAHFTQKGNLLRHIKL [46F_47Y_49E_50V_52G_53A_54H_55F_67L_, Q9UKT9]', 'log2 fold change of degron read counts', 0.916),
  ('FSCEICGAKFTQKGNLLRHIKL [46F_47S_49E_50I_52G_53A_54K_55F_67L_, Q9UKT9]', 'log2 fold change of degron read counts', 1.76),
  ('FVCNVCGAWFTQKGNLLRHIKL [46F_47V_49N_50V_52G_53A_54W_55F_67L_, Q9UKT9]', 'log2 fold change of degron read counts', -1.25),
  ('FFCEICGAKFTQKGNLLRHIKL [46F_47F_49E_50I_52G_53A_54K_55F_67L_, Q9UKT9]', 'log2 fold change of degron read counts', 1.7),
  ('FTCEVCGAHFTQKGNLLRHIKL [46F_47T_49E_50V_52G_53A_54H_55F_67L_, Q9UKT9]', 'log2 fold change of degron read counts', 2.04),
  ('FGCNQCGRIFTQKGNLLRHIKL [46F_47G_49N_50Q_52G_53R_54I_55F_67L_, Q9UKT9]', 'log2 fold change of degron read counts', -1.45),
  ('FECEICGAKFTQKGNLLRHIKL [46F_47E_49E_50I_52G_53A_54K_55F_67L_, Q9UKT9]', 'log2 fold change of degron read counts', 2.62),
  ('FYCPICGAHFTQKGNLLRHIKL [46F_47Y_49P_50I_52G_53A_54H_55F_67L_, Q9UKT9]', 'log2 fold change of degron read counts', 0.702),
  ('FYCEICGAKFTQKGNLLRHIKL [46F_47Y_49E_50I_52G_53A_54K_55F_67L_, Q9UKT9]', 'log2 fold change of degron read counts', 1.59);
